# maps each entry to its self-cleavage
B1: HDV Ribozyme (parent)
chain: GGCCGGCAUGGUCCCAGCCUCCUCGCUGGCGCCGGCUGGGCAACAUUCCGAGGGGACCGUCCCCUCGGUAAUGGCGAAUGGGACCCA

- Variants of: B1
- assay_info: self-cleavage, relative activity (ratio to wild type); higher = more cleavage; co-transcriptional

mutation_code | self-cleavage
G81U C86U | 0.767
C21A C63A | 0.0314
G11U A16C | 0.38
U9C C58A | 1.11
G5U C49G | 0.0831
A16G G67C | 0.849
C24A G39C | 0.0692
U60C A70C | 1.04
U9C G81A | 0.415
A16U G31A | 0.409
G11A A51G | 0.374
C32A C63G | 0.095
C18U C44G | 0.142
U46G C64G | 0.525
G50C G76C | 1.08
G11A C49G | 0.156
C26A C57A | 1.02
G1U C58A | 0.237
C3U A51G | 0.577
A43G G74U | 0.243
A16G C62G | 0.369
U69A A78U | 0.222
